B1: TPR t1 (parent)
chain: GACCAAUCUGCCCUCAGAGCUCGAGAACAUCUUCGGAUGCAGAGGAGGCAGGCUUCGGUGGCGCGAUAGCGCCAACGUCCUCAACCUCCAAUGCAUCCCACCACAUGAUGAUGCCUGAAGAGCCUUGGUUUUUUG

- Variants of: B1
- Method notes: polymerase ribozyme fitness, log enrichment relative to wild type (log ratio); higher = more active; in vitro selection for triplet polymerase activity
# binarize polymerase ribozyme fitness (log ratio): threshold -4 inclusive, high side 1, low side 0

Item GACCAAUCUGCCCUCAGAGCUCGAGAACAUCUUCGGAUGCAGAGGAGGCAGGCGUCGGUGGCGCGAUAGCGCCAACGUCCUCAACCUCAAAUGCAUCCCACCACAUGAUGAUGCCUGAAGAGCCUUGGUUGUUUG [U54G C89A U131G] with polymerase ribozyme fitness (log ratio) of -4 or above?
1

Item GACCAAUCUGCCCUCAAAGCUCGAGAACAUCUUCGGAUGCAGAGGAGGGAGGCUCCGGUGGCGCGAUAGCGCCAUUGUCCUCAACCUCCAAUGCAUCCCACCACAUGAUGAUUCCUGAAGAGCCUUGGUUUUUUG [G17A C49G U55C A75U C76U G113U] with polymerase ribozyme fitness (log ratio) of -4 or above?
0

Item GACCAAUGUGCCCUCAGAGCUCGAGAACAUCUUCGGAUGCAGAGGUGGCAGGCUUCGGUGGCGCGAUAGCGCCAACGUCCUCAACCUCCAUUGCAUCCCACCACAUGAUGAUGCCUCAAGAGCCUUGGUUUUUUG [C8G A46U A91U G117C] with polymerase ribozyme fitness (log ratio) of -4 or above?
1

Item GACCAAUCUGCCCUCAGUGCUCGAGAACAUCUUCGGAUGCAGAGGAGGCAGGCUUCGGUGGCGCGAUAGCGCCAACGUCCUCAACCUCCAAUGCAUCCCACCACAUGAUGAUGACUGAAGAGCCUUGGUUUUUUG [A18U C114A] with polymerase ribozyme fitness (log ratio) of -4 or above?
1

Item GACCAAUCUGCCCUCAGAGCUCGAGAACAUCUUCGGAUGCAGGGGAGGCAGGCUUCGGUGGCGCGAUAGCGCCAACGUCCUCAACCUCCAAUGCAUCCCACCACAUGAUGAUCCCUGAAGAGCCUUGGUUUUUUG [A43G G113C] with polymerase ribozyme fitness (log ratio) of -4 or above?
1

Item GACCAAUCAGCCCUCAGAGCUCGAGAACAUCCUCGCAUGCAGAGGAGGCAGGCUUCGGUGGCGCGAUAGCGCCAACGUCCUCAACCUCCAAUGCAUCCCACCACAUGAUGAUGCCUGAAGAGCCUUGGUUUUUUG [U9A U32C G36C] with polymerase ribozyme fitness (log ratio) of -4 or above?
1

Item GAUCAAUCUGCCCUCAGAGCUCGAGAACAUCUUCGGAUGCAGAGGAGCCAGGCUUCGGUGUCGCGAUAGCGCCAACGUCCUCAACCUCCAAUGCAUCCCACCACAUGAUGAUGCCUGAAGAGCCUUGGUUUUUUG [C3U G48C G61U] with polymerase ribozyme fitness (log ratio) of -4 or above?
1

Item GACCAAUCUGCCCUCAGAGCUCGAGGACAUCUUCGGAUGCAGAGGAGGCAGGAUUUGGUGGCGCGAUAGCGCCAACGUCCUCAACCUCCAAUCCAGCCCACCACAUGAUGAUGCCUGAAGAGCCUUGGUUUUUUG [A26G C53A C56U G93C U96G] with polymerase ribozyme fitness (log ratio) of -4 or above?
0

Item GACCAAUCUGCCGUCAGAGCUCGAGAACAUCUUCGGAUGCAGAGGAGGCAGGCUUCGCUGGCGCGAUAGCGCCAACGUCCUCAACCUCCAACGCAUCCCACCACAUGAUGAUGCCUGAAGAGCCUUGGUUUUUUG [C13G G58C U92C] with polymerase ribozyme fitness (log ratio) of -4 or above?
1

Item GACCAAUCUGCCCUCAGAGCUCGAGAACAUCUUCGGAUGCAGAGGUGACAGGCUUCGGUGGCGCGAUAGCGCCAACGUCCUCAACCUCCAAUGCAUCCCACCACAUGAUGAUGCCUGAAGAGCCUUGAUUUUUUG [A46U G48A G128A] with polymerase ribozyme fitness (log ratio) of -4 or above?
0
